Target: Histone-lysine N-methyltransferase EHMT2 (Homo sapiens)
Protocol details: qHTS Assay for Inhibitors of Histone Lysine Methyltransferase G9a; note: nearly all actives have a fitted effect of over 75% in size; note: potency is the fitted concentration of half-maximal effect
Condition label: G9a H3K9 monomethylation, AlphaScreen, 2 h; series mostly up to 59 µM
The whole screen tested about 350,000 compounds, of which about 31,000 (8.9%) were called active. Not shown: some 15% with an inconclusive outcome. This is one part of a sample in which actives are shown more often than they occur.
Result type: Potency

O=C(Nc1nc2c(s1)CCCC2)c1ccccc1F :: 12.6 µM (active)
O=c1c(=O)n(Cc2c(F)cccc2Cl)ccn1Cc1ccccc1 :: inactive
COc1ccc(C=Nc2cccc3ncccc23)cc1 :: inactive
CNc1ccc(-c2nc(-c3ccccc3C)no2)cc1[N+](=O)[O-] :: inactive
CCN1CCc2nc3sc(C(=O)Nc4ccccc4OC(F)(F)F)c(N)c3cc2C1 :: 14.1 µM (active)

What measured Potency goes with Cc1ccc(C)c(Cn2c(=O)n(CCC(=O)NCc3ccc4c(c3)OCO4)c(=O)c3sccc32)c1 ? inactive

What measured Potency goes with CCOC(=O)c1ccc(NC(=O)CCS(=O)(=O)c2ccc(C)cc2)cc1 ? inactive

What measured Potency goes with O=C(Cn1ncn2nc(-c3cccs3)cc2c1=O)NCc1cccc(Br)c1 ? inactive

What measured Potency goes with C#CC(C)(CC)NC(=O)Cn1nnc(-c2ccc(OCc3c(F)cccc3Cl)cc2)n1 (stereo unspecified) ? inactive

What measured Potency goes with C[n+]1cc(-c2ccccc2)oc1-c1ccccc1 ? 50.1 µM (active)

What measured Potency goes with CC(C)(C)c1ccc(OCC(=O)N2CCC(c3nc4ccccc4s3)CC2)cc1 ? inactive
